These entries and their values trace back to the supplement of paper PMC11061612.

Tested on: BT-549 (Breast Carcinoma);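 further: after 72 h of two-drug dosing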
experiment: Bliss excess, mean over the matrix (fraction); higher = more synergy
# maps each entry to its Bliss excess
result-type: Bliss excess

compound	target-under-test	measured
Cc1c2c(nn1C)CSCc1cc(n(C)n1)CSc1cc(c3ccccc3c1)OCCCc1c(C(=O)O)n(C)c3c-2c(Cl)ccc13 [AZD5991] + Cn1cnc2c(F)c(Nc3ccc(Br)cc3Cl)c(C(=O)NOCCO)cc21 [Selumetinib] (first compound max 1 µM, 7x7, partner max 3 µM)	BT-549 (Breast Carcinoma)	0.0056
CC1(C)CCC(CN2CCN(c3ccc(C(=O)NS(=O)(=O)c4ccc(NCC5CCOCC5)c([N+](=O)[O-])c4)c(Oc4cnc5[nH]ccc5c4)c3)CC2)=C(c2ccc(Cl)cc2)C1 [Venetoclax] + CN(C)CCCOc1ccc(-c2ccc3ncc4c(c3c2)n(C2CCOCC2)c(=O)n4C)cn1 [AZD0156] (first compound max 1 µM, 7x7, partner max 1 µM)	BT-549 (Breast Carcinoma)	-0.0049

----------
System: PWR-1E (Non-Cancerous)
experiment: combination Emax (second highest fraction inhibited in the dose matrix, 72 h); higher = more inhibition; extreme values may be limits of the assay
# label = true if combination Emax >= 0.6 else false

molecule	target-under-test	cat
CC(=O)c1c(C)c2cnc(Nc3ccc(N4CCNCC4)cn3)nc2n(C2CCCC2)c1=O [Palbociclib] + Cn1cnc2c(F)c(Nc3ccc(Br)cc3Cl)c(C(=O)NOCCO)cc21 [Selumetinib] (first compound max 10 µM, 7x7, partner max 10 µM)	PWR-1E (Non-Cancerous)	false
COc1cccc2c1C(=O)c1c(O)c3c(c(O)c1C2=O)C[C@@](O)(C(=O)CO)C[C@@H]3O[C@H]1C[C@H](N)[C@H](O)[C@H](C)O1 [Doxorubicin] + Cc1cc2ncnn2cc1Nc1ncc2c(n1)n(C1CCOCC1)c(=O)n2C [AZD7648] (first compound max 1 µM, 7x7, partner max 10 µM)	PWR-1E (Non-Cancerous)	true
NC1(C(=O)N[C@@H](CCO)c2ccc(Cl)cc2)CCN(c2ncnc3[nH]ccc23)CC1 [Capivasertib] + Cn1cnc2c(F)c(Nc3ccc(Br)cc3Cl)c(C(=O)NOCCO)cc21 [Selumetinib] (first compound max 10 µM, 7x7, partner max 10 µM)	PWR-1E (Non-Cancerous)	false
CN(CCO)CC[C@H](CSc1ccccc1)Nc1ccc(S(=O)(=O)NC(=O)c2ccc(N3CCC([C@@H](O)c4ccccc4-c4ccc(Cl)cc4)CC3)cc2)cc1S(=O)(=O)C(F)(F)F [AZD4320] + C=CCn1c(=O)c2cnc(Nc3ccc(N4CCN(C)CC4)cc3)nc2n1-c1cccc(C(C)(C)O)n1 [AZD1775] (first compound max 1 µM, partner max 1 µM)	PWR-1E (Non-Cancerous)	false
CN(CCO)CC[C@H](CSc1ccccc1)Nc1ccc(S(=O)(=O)NC(=O)c2ccc(N3CCC([C@@H](O)c4ccccc4-c4ccc(Cl)cc4)CC3)cc2)cc1S(=O)(=O)C(F)(F)F [AZD4320] + CN(C)CCCOc1ccc(-c2ccc3ncc4c(c3c2)n(C2CCOCC2)c(=O)n4C)cn1 [AZD0156] (first compound max 1 µM, 7x7, partner max 1 µM)	PWR-1E (Non-Cancerous)	false
CC(=O)c1c(C)c2cnc(Nc3ccc(N4CCNCC4)cn3)nc2n(C2CCCC2)c1=O [Palbociclib] + Cc1c2c(nn1C)CSCc1cc(n(C)n1)CSc1cc(c3ccccc3c1)OCCCc1c(C(=O)O)n(C)c3c-2c(Cl)ccc13 [AZD5991] (first compound max 10 µM, 7x7, partner max 1 µM)	PWR-1E (Non-Cancerous)	false
COc1nnc2ccc(N3CCC(c4ccc(OCCN5CCN(C)C(=O)[C@H]5C)cc4)CC3)nn12 [AZD5153] + CCN(CCO)CCCOc1ccc2c(Nc3cc(CC(=O)Nc4cccc(F)c4)[nH]n3)ncnc2c1 [AZD2811] (first compound max 1 µM, 7x7, partner max 1 µM)	PWR-1E (Non-Cancerous)	true
CN(C)CCCOc1ccc(-c2ccc3ncc4c(c3c2)n(C2CCOCC2)c(=O)n4C)cn1 [AZD0156] + O=C(c1cc(Cc2n[nH]c(=O)c3ccccc23)ccc1F)N1CCN(C(=O)C2CC2)CC1 [Olaparib] (first compound max 3 µM, partner max 3 µM)	PWR-1E (Non-Cancerous)	true
